Give measured Total Cell Count for each item. Keep answers brief.
# Test system: U2OS
# test.name: Multiplex assay against U2OS
# Assay type: toxicity, cell-based
# run.conditions: human, 24 h, 1 µM, compound concentration 1 uM, replicate 1
No unit in the answer, please; the number alone is enough.

Ask: Param item = CCCCC1=NC2(CCCC2)C(=O)N1Cc1ccc(-c2ccccc2-c2nnn[nH]2)cc1 [IRBESARTAN] ; retrieve measured Total Cell Count.
Reply: 241

Ask: Would you mind telling me what Total Cell Count value was observed for COc1cccc2c1c(NS(=O)(=O)c1ccc(Cl)s1)nn2Cc1cccc(CNC(=O)C(C)(C)O)c1 ?
Reply: 307

Ask: Which Total Cell Count reading was recorded for the compound N#Cc1c(Oc2cccc(OS(=O)(=O)CCCC(F)(F)F)c2)cccc1C(F)(F)F ?
Reply: 263

Ask: Field request: Total Cell Count | item: NCCc1cn(S(=O)(=O)c2c(Cl)nc3sccn23)c2ccccc12.O=C(O)C(=O)O
Reply: 326

Ask: Entry CC(C)(C)c1cc(NC(=O)Nc2ccc(-c3cn4c(n3)sc3cc(OCCN5CCOCC5)ccc34)cc2)no1 [QUIZARTINIB] : reported Total Cell Count = ?
Reply: 234

Ask: I am curious: what Total Cell Count value has been reported for Cc1onc(-c2ccccc2Cl)c1C(=O)N(C)c1ccc(Cl)cc1 ?
Reply: 328

Ask: What value of Total Cell Count has been recorded for this entry: O=C(NCCN1CCC(n2c(=O)[nH]c3cc(Cl)ccc32)CC1)c1ccc(F)cc1 [HALOPEMIDE]
Reply: 241

Ask: // lookup Total Cell Count for Cl.N=C(N)NC(=O)Cc1c(Cl)cccc1Cl [GUANFACINE HYDROCHLORIDE]
Reply: 194

Ask: Request the reported Total Cell Count associated with COc1ccccc1N1CCN(C[C@@H](C(=O)NC(C)(C)C)c2ccccc2)CC1.Cl.Cl
Reply: 320

Ask: Form field: reported Total Cell Count of Br.CS(=O)(=O)Nc1c(O)ccc2c1CCCC2C1=NCCN1 (stereo not drawn)
Reply: 341

Ask: Give its Total Cell Count value. Item: CCCOc1ccc2[nH]cc(C3=CCNCC3)c2n1.Cl
Reply: 252

Ask: Give the measured Total Cell Count of CC[C@@H](C)Nc1nc(C)nc2c(-c3ccc(OC)nc3C)c(C)nn12 [PEXACERFONT] .
Reply: 346

Ask: Returns the measured Total Cell Count for the input compound. Input: Cc1noc(-c2ccc(-c3ccc(CC(=O)O)cc3)cc2)c1NC(=O)O[C@H](C)c1ccccc1Cl
Reply: 277

The measured values listed here are drawn from ChEMBL document CHEMBL5058577.
